B1: library; a variant is named by its letters at N, in order (parent)
chain: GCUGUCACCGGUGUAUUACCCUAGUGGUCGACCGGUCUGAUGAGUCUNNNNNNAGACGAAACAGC

# Variants of: B1
# PROTOCOL_DESCRIPTION: FACS-Seq fitted mean relative fluorescence mCherry/BFP without ligand (log10 relative fluorescence); ligand: hypoxanthine (xanthine aptamer); higher = higher reporter protein expression
# RECORDED_CONDITIONS: HEK293T, ligand present: no
Please provide measured FACS-Seq fitted mean (log10) for the entries that follow.

Field request: FACS-Seq fitted mean (log10) | item: `GGAGCG`
0.171

Suppose we examine the variant `GUCGAA` ; what FACS-Seq fitted mean (log10) value has been reported?
0.322

Tell me the measured FACS-Seq fitted mean (log10) of `GUGACG` , please.
0.259

Requested field: FACS-Seq fitted mean (log10). Item: `GAGAUG`
0.113

Which FACS-Seq fitted mean (log10) value is on record for `AGCCAA` ?
0.57

Fill in: FACS-Seq fitted mean (log10) of `ACAAUA` is ___
0.442

FACS-Seq fitted mean (log10) for `UCAAAU` ?
0.482

So what does the record say about FACS-Seq fitted mean (log10) for `AAUAGU` ?
0.36

Entry `CAGUGA` has what FACS-Seq fitted mean (log10)?
0.406

Fill in: FACS-Seq fitted mean (log10) of `GAACGA` is ___
0.281

Recorded FACS-Seq fitted mean (log10) for `GUUGUA` , please?
0.455

Fill in the blank: the reported FACS-Seq fitted mean (log10) of `CACCGA` is ____.
0.374

Quick one: FACS-Seq fitted mean (log10) for `AAUCUG` ?
0.297

Look at this variant and give its reported FACS-Seq fitted mean (log10). `GUUAUG`
0.223

Please give the measured FACS-Seq fitted mean (log10) for this variant: `ACAAAA`
0.4

Please report the recorded FACS-Seq fitted mean (log10) for `AUAAGA` .
0.457

Need FACS-Seq fitted mean (log10) of `AGAGAG` , thanks.
0.482

Which FACS-Seq fitted mean (log10) value belongs to `GGACAC` ?
0.562

Tell me the measured FACS-Seq fitted mean (log10) of `CCUGUA` , please.
0.473

FACS-Seq fitted mean (log10) for `AACGGC` ?
0.644

For the variant `GUGCUG` , what FACS-Seq fitted mean (log10) is on record?
0.44

# get_value(readout='FACS-Seq fitted mean (log10)', item= `CUGUUA` )
0.263

# input variant: `AAGAAA` ; wanted: its FACS-Seq fitted mean (log10)
0.272

I'd like to know its FACS-Seq fitted mean (log10). The variant in question is `UAAAAU`
0.434

Field request: FACS-Seq fitted mean (log10) | item: `AAACUG`
0.227

Look up FACS-Seq fitted mean (log10) for this variant: `ACUACU`
0.265

Could you tell me which FACS-Seq fitted mean (log10) is on file for `UCUAUC` ?
0.701

# FACS-Seq fitted mean (log10) lookup, item `CUUAUA`
0.669

Can you look up the measured FACS-Seq fitted mean (log10) of `GUCGGC` for me?
0.485

// returns reported FACS-Seq fitted mean (log10) for input `AUAUGU`
0.416

Which measured FACS-Seq fitted mean (log10) value corresponds to `GAGCAC` ?
0.773

Please report the recorded FACS-Seq fitted mean (log10) for `CUUACC` .
0.555

What value of FACS-Seq fitted mean (log10) has been recorded for this entry: `CGAAAC`
0.667

Item under review: `GAGCGC` . Reported FACS-Seq fitted mean (log10)?
0.507

What does the record list as FACS-Seq fitted mean (log10) for `ACGGAU` ?
-0.0352

Any idea what FACS-Seq fitted mean (log10) was measured for `UCCGCG` ?
0.209

Recorded FACS-Seq fitted mean (log10) for `CAAUUG` , please?
0.324

Field request: FACS-Seq fitted mean (log10) | item: `GCAGCC`
0.465

Recorded FACS-Seq fitted mean (log10) of `CCCUGA` , please.
0.263

Return reported FACS-Seq fitted mean (log10); argument: `AAUUCA`
0.486

Record request: FACS-Seq fitted mean (log10) value, item `GUGAGA`
-0.285

What FACS-Seq fitted mean (log10) value was documented for this variant, `UAAAUG` ?
0.306

I would be grateful if you could share the reported FACS-Seq fitted mean (log10) for `UUCCAC` .
0.451

Given the variant `GAAACC` , what is its reported FACS-Seq fitted mean (log10)?
0.401

So what does the record say about FACS-Seq fitted mean (log10) for `GGCGGA` ?
0.416

Please look up its FACS-Seq fitted mean (log10): `GCGGGA`
0.182

Quick check: FACS-Seq fitted mean (log10) of `ACAGAU` ?
0.263

Data request, read-out FACS-Seq fitted mean (log10), for `UCACAU`
-0.364

I'd like to know its FACS-Seq fitted mean (log10). The variant in question is `CCGGGA`
0.607

Which FACS-Seq fitted mean (log10) value belongs to `CUGGGG` ?
0.345

Fill in: FACS-Seq fitted mean (log10) of `GUGAGG` is ___
0.174

// returns reported FACS-Seq fitted mean (log10) for input `GAAUUA`
0.374

FACS-Seq fitted mean (log10) for `AGUGGA` ?
0.318

I have this variant here, `AUGAUG` , and I need its recorded FACS-Seq fitted mean (log10).
-0.144

Data request, read-out FACS-Seq fitted mean (log10), for `GAAAUG`
0.0921

Give its FACS-Seq fitted mean (log10) value. Item: `CGAUGG`
0.217

// query FACS-Seq fitted mean (log10) value for entry `GACGCU`
0.261

Suppose we examine the variant `AGUGGC` ; what FACS-Seq fitted mean (log10) value has been reported?
-0.495

Which FACS-Seq fitted mean (log10) reading was recorded for the variant `AACUUG` ?
0.597

For the variant shown here, `ACAGGA` , give the reported FACS-Seq fitted mean (log10).
0.278

Quick check: FACS-Seq fitted mean (log10) of `GAGGCG` ?
0.189

Can you share its FACS-Seq fitted mean (log10)? I mean this variant: `UAAGAG`
0.312

I'd like to know its FACS-Seq fitted mean (log10). The variant in question is `AUCUUG`
0.269

Consider the variant shown here: `UGCCAG` What is its recorded FACS-Seq fitted mean (log10)?
0.421

Look up FACS-Seq fitted mean (log10) for this variant: `GCCGUU`
-0.297

Which value of FACS-Seq fitted mean (log10) has been reported for `ACGAGA` in the records?
-0.0663

Any idea what FACS-Seq fitted mean (log10) was measured for `GAGCAG` ?
-0.00628

For the variant shown here, `AAAGUU` , give the reported FACS-Seq fitted mean (log10).
0.306

Item under review: `GAAUGG` . Reported FACS-Seq fitted mean (log10)?
-0.206

Please give the measured FACS-Seq fitted mean (log10) for this variant: `CUCGGU`
-0.663

Please give the measured FACS-Seq fitted mean (log10) for this variant: `AUAAUA`
-0.24

# input variant: `GUAUAG` ; wanted: its FACS-Seq fitted mean (log10)
-0.0857

I would be grateful if you could share the reported FACS-Seq fitted mean (log10) for `UACUUU` .
0.0654

Given the variant `UAAAAA` , what is its reported FACS-Seq fitted mean (log10)?
0.315

# input variant: `AACACC` ; wanted: its FACS-Seq fitted mean (log10)
0.754

Need FACS-Seq fitted mean (log10), item `GUCCAG`
0.311

Need FACS-Seq fitted mean (log10), item `UAGUGU`
0.0263

Give its FACS-Seq fitted mean (log10) value. Item: `GGUAAU`
0.123

Requested read-out: FACS-Seq fitted mean (log10). Entry: `ACAAAC`
0.537

Requested read-out: FACS-Seq fitted mean (log10). Entry: `ACUGCG`
0.125

Which value of FACS-Seq fitted mean (log10) has been reported for `GCCGCA` in the records?
0.533

Return reported FACS-Seq fitted mean (log10); argument: `CUCCAU`
-0.247

Record request: FACS-Seq fitted mean (log10) value, item `AAUGUG`
0.203

Given the variant `AGUAAA` , what is its reported FACS-Seq fitted mean (log10)?
0.625

Param item = `AGGGUC` ; retrieve measured FACS-Seq fitted mean (log10).
0.588

Suppose we examine the variant `UAGCAA` ; what FACS-Seq fitted mean (log10) value has been reported?
0.0307

What measured FACS-Seq fitted mean (log10) goes with `UCAGGA` ?
0.301

Requested field: FACS-Seq fitted mean (log10). Item: `ACUGGU`
0.0934

What does the record list as FACS-Seq fitted mean (log10) for `AACUUA` ?
0.394

State the recorded FACS-Seq fitted mean (log10) for this entry: `UAGAGU`
0.11

Entry under review: `GCCGAG` . Reported FACS-Seq fitted mean (log10)?
0.182

Where do these numbers come from? They come from the supplement of paper PMC6757056.
